tested on: SF-268; assay: NCI tumour cell line growth inhibition, 48 h
Activity calls are given as the source filed them. Cut-off read from the data, not from the text of the source: active = GI50 up to about 1.1 µM and inactive = higher.
MEASURE_NAME: GI50

The measured GI50 associated with CC(NC(=O)/C(=C/c1ccccc1)NC(=O)c1ccccc1)C(=O)O (configuration not stated) reads > 100 µM (inactive)

The measured GI50 associated with CC(SC(=S)Nc1cccc(F)c1)C(=O)O (configuration not stated) reads 13.6 µM (inactive)

The measured GI50 associated with CCCCNC(=S)Nc1nc(C(=O)NNC(=S)NC2CCCCC2)cs1 reads > 100 µM (inactive)

The measured GI50 associated with Nc1ccc2n[se]nc2c1 reads > 100 µM (inactive)

The measured GI50 associated with CC(C)C(=O)/C=C/c1ccc(Cl)cc1Cl reads 6.93 µM (inactive)

The measured GI50 associated with COc1cc2c3cc1Oc1c(OC)c(OC)cc4c1C(Cc1ccc(O)c(c1)-c1cc(ccc1OC)CC3N(C)CC2)N(C)CC4 (configuration not stated) reads 19.1 µM (inactive)

The measured GI50 associated with C=C(C)C(O)CCC1(C)C=Cc2c(c(C)cc3c2[nH]c2ccccc23)O1 (configuration not stated) reads 9.93 µM (inactive)
